Origin of the recorded values: the supplement of paper PMC10065799

molecular target: Hck (UniProt P08631); experiment: phosphorylation enrichment, bacterial display (enrichment ratio); higher = better substrate or ligand; peptides without Tyr show the background;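 also: 11-residue human phosphosite peptides and single-mutation variants displayed on the E. coli surface, counted by deep sequencing, each peptide's frequency after selection divided by its frequency in the unselected input library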;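 also: frequency after pTyr selection over input frequency; kinase dosed for 20-30% of maximal phosphorylation in three min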
Sequence (P08631 whole entry, looked up): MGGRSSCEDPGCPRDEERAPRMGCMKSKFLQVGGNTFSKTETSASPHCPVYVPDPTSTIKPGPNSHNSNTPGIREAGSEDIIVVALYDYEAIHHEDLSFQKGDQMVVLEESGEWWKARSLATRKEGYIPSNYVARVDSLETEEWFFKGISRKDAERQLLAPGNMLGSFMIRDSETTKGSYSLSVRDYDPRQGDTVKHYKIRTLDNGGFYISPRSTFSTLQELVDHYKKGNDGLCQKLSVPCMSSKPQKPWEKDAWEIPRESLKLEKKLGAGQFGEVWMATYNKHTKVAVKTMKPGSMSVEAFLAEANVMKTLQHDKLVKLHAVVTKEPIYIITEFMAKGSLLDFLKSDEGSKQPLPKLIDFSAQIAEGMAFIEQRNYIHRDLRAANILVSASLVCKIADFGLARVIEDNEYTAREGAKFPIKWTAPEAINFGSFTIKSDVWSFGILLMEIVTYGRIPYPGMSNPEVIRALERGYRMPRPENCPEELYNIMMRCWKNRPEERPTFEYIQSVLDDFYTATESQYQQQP
Endpoint label: phosphorylation enrichment

1. HILRVYSGVLP [PCNX4_Y999_G1000S]: 1.15
2. DVSVVYSEVKT [FCRL4_Y493]: 5.21
3. KPLMPYMRYSR [SMARCE1_Y73]: 0.435
4. SGGGSYGSGGG [KRT1_Y539]: 0.346
5. PLAVPYLDKPP [JMJD7_Y31]: 0.711
6. CTLNVYRQLHN [LUZP1_Y1036_S1034N]: 0.551
7. EEGNPYFSSTR [MCCC2_Y520_A524T_YF]: 0.595
8. DYDHSYYFIAT [ESD_Y262_G257D]: 2.24
9. ETESPYQELQG [TYROBP_Y91]: 0.9
10. ITGNGYFFRVF [MYBPC3_Y1135_I1131T_YF]: 0.377
11. RISRKYKKVRF [F8_Y442_G439S]: 0.571
12. FPPTHYIRRVP [SLC4A11_Y820_YF]: 0.965
13. TLKDVCDDGKF [RPS6KA3_Y483_Y483C_YF]: 0.427
14. YTDPYYDYEIE [ZC3H18_Y372_A368T]: 0.967
15. GAALAYGLDKS [HSPA9_Y230_A225G]: 0.402
16. SGGGLYRDMGA [CBX8_Y321]: 0.428
17. SNYRAYATEPH [TNNI3_Y29]: 0.382
18. DEDFLCREELA [POR_Y575_Y575C_YF]: 0.629
19. TFGQVYKGRHV [TNIK_Y40_YF]: 0.406
20. STAPSYGNPSS [CD19_Y378_G373S]: 0.34
21. MAQDIYRASFF [ALK_Y1278_R1275Q_YF]: 2.06
22. IDAVCYFRMEN [NPHS2_Y194_I192V_YF]: 0.903
23. IYETDYYQKGG [INSR_Y1189_R1191Q]: 1.37
24. QLFGAYLRIHA [BSCL2_Y213_YF]: 1.02
25. NTGLDYIKFTW [HRH1_Y386]: 0.495
26. PDDPSYSLVDD [PSTPIP2_Y323_N322S]: 0.679
27. RLDRSYSFSFS [PEAR1_Y890_YF]: 0.791
28. HRGCLYLAIEY [TEK_Y899_Y897C]: 1.05
29. IGEGTYGVLYK [CDK2_Y15_V18L]: 7.04
